Could you please report measured Lym for the items listed next?
species: Rattus norvegicus; assay: Open TG-GATES - Regimen: Daily Repeat; format: toxicity, organism-based, Sprague-Dawley; set-up: regimen Daily Repeat, gender Male, age 6 weeks; settings: in vivo, po, 300 mg/kg, […], tissue Blood, route gavage, dose level Middle, time 14 day
Put down the number, then write its unit next to it.

Q: Reported Lym for O=C(O)c1cccnc1 [NIACIN] : what is it?
Ans: 72.6%

Q: Fill blank: measured Lym of the compound O=C(N[C@H](CO)[C@H](O)c1ccc([N+](=O)[O-])cc1)C(Cl)Cl [CHLORAMPHENICOL] is ____.
Ans: 84.8%

Q: Return reported Lym; argument: CCN1CCCC1CNC(=O)c1cc(S(N)(=O)=O)ccc1OC (centres undefined) [SULPIRIDE]
Ans: 78.4%

Q: Suppose we examine the compound CC(C)(S)[C@@H](N)C(=O)O [PENICILLAMINE] ; what Lym value has been reported?
Ans: 81.2%

----------
species: Rattus norvegicus; assay: Open TG-GATES - Regimen: Daily Repeat; assay type: toxicity, organism-based, Sprague-Dawley; set-up: regimen Daily Repeat, gender Male, age 6 weeks; settings: in vivo, po, 100 mg/kg, […], tissue Blood, route gavage, dose level Low, time 28 day
I'd be grateful if you could share measured MCV for these entries.
Give the number; fL is assumed, so skip it.

Q: // query MCV value for entry CC(C)(S)[C@@H](N)C(=O)O
Ans: 57.7

Q: Can you look up the measured MCV of CCN1CCCC1CNC(=O)c1cc(S(N)(=O)=O)ccc1OC (centres undefined) [SULPIRIDE] for me?
Ans: 57.7

Q: // query MCV value for entry O=C(O)c1cccnc1
Ans: 56

Q: So what's the measured MCV for this one? O=C(N[C@H](CO)[C@H](O)c1ccc([N+](=O)[O-])cc1)C(Cl)Cl
Ans: 57

----------
species: Rattus norvegicus; assay: Open TG-GATES - Regimen: Single; format: toxicity, organism-based, Sprague-Dawley; design: regimen Single, gender Male, age 6 weeks; conditions: in vivo, po, 0 mg/kg, 6 h, tissue Plasma, route gavage, dose level Control
For each entry below, report its IP value.
Give the value, in units of mg/dL, as a plain number.

Q: Which IP is reported for this compound? CCC(C)(C)C(=O)O[C@H]1C[C@@H](C)C=C2C=C[C@H](C)[C@H](CC[C@@H]3C[C@@H](O)CC(=O)O3)[C@H]21 [SIMVASTATIN]
Ans: 9.4

Q: Name the recorded IP for CCSCC[C@H](N)C(=O)O [ETHIONINE] .
Ans: 9.5

Q: Tell me the measured IP of CN1C(=O)OC(C)(C)C1=O [TRIMETHADIONE] , please.
Ans: 8.9

Q: Suppose we examine the compound O=C(N[C@H](CO)[C@H](O)c1ccc([N+](=O)[O-])cc1)C(Cl)Cl [CHLORAMPHENICOL] ; what IP value has been reported?
Ans: 10.4

Q: Query: IP; subject: C[C@]12CCC(=O)C=C1CC[C@@H]1[C@@H]2CC[C@@]2(C)[C@H]1CC[C@]2(C)O [METHYLTESTOSTERONE]
Ans: 10.1

Q: Request the reported IP associated with O=C(O)c1cccnc1 [NIACIN]
Ans: 9.5

Q: For the compound C#C[C@]1(O)CC[C@H]2[C@@H]3CCc4cc(O)ccc4[C@H]3CC[C@@]21C [ETHINYL ESTRADIOL] , what IP is on record?
Ans: 10.2

Q: Would you kindly share the measured IP for CC(C)(S)[C@@H](N)C(=O)O [PENICILLAMINE] ?
Ans: 8.9

Q: Would you mind telling me what IP value was observed for CCc1oc2ccccc2c1C(=O)c1cc(I)c(O)c(I)c1 [BENZIODARONE] ?
Ans: 9.3

----------
species on record: Rattus norvegicus; test: Open TG-GATES - Regimen: Single; format: toxicity, organism-based, Sprague-Dawley; design: regimen Single, gender Male, age 6 weeks; details: in vivo, po, 0 mg/kg, 9 h, tissue Plasma, route gavage, dose level Control
readoutType: ALT (IU/L)
Please give a number only; it is taken to be in IU/L.

Q: So what does the record say about ALT for C[C@]12CCC(=O)C=C1CC[C@@H]1[C@@H]2CC[C@@]2(C)[C@H]1CC[C@]2(C)O [METHYLTESTOSTERONE] ?
Ans: 42.2

Q: Bench note: what ALT did CCC(C)(C)C(=O)O[C@H]1C[C@@H](C)C=C2C=C[C@H](C)[C@H](CC[C@@H]3C[C@@H](O)CC(=O)O3)[C@H]21 [SIMVASTATIN] show?
Ans: 29.2

Q: Endpoint output: ALT of C#C[C@]1(O)CC[C@H]2[C@@H]3CCc4cc(O)ccc4[C@H]3CC[C@@]21C [ETHINYL ESTRADIOL] . Value?
Ans: 42

Q: What value of ALT has been reported for the following compound? CCN1CCCC1CNC(=O)c1cc(S(N)(=O)=O)ccc1OC (stereo not given) [SULPIRIDE]
Ans: 69

Q: Look up ALT for this compound: CCc1oc2ccccc2c1C(=O)c1cc(I)c(O)c(I)c1 [BENZIODARONE]
Ans: 30.8

----------
species: Rattus norvegicus; test: Open TG-GATES - Regimen: Daily Repeat; type: toxicity, organism-based, Sprague-Dawley; set-up: regimen Daily Repeat, gender Male, age 6 weeks; settings: in vivo, po, 1000 mg/kg, […], tissue Blood, route gavage, dose level High, time 14 day
readoutType: MCHC

Q: Look up MCHC: CCN1CCCC1CNC(=O)c1cc(S(N)(=O)=O)ccc1OC (centres undefined) [SULPIRIDE]
Ans: 33.6%

Q: Recorded MCHC of CC(C)(S)[C@@H](N)C(=O)O , please.
Ans: 32.9%

Q: # MCHC lookup, item O=C(N[C@H](CO)[C@H](O)c1ccc([N+](=O)[O-])cc1)C(Cl)Cl
Ans: 32.3%

Q: Consider the molecule shown here: O=C(O)c1cccnc1 What is its recorded MCHC?
Ans: 33.6%

----------
I'd be grateful if you could share measured MCHC for these entries.
organism: Rattus norvegicus; experiment: Open TG-GATES - Regimen: Single; type: toxicity, organism-based, Sprague-Dawley; design: regimen Single, gender Male, age 6 weeks; details: in vivo, po, 0 mg/kg, 3 h, tissue Blood, route gavage, dose level Control
Please give a number only; it is taken to be in %.

Q: Which measured MCHC value corresponds to CCN1CCCC1CNC(=O)c1cc(S(N)(=O)=O)ccc1OC (stereo unspecified) [SULPIRIDE] ?
Ans: 32.3

Q: MCHC for O=C(N[C@H](CO)[C@H](O)c1ccc([N+](=O)[O-])cc1)C(Cl)Cl ?
Ans: 34.2

Q: # MCHC lookup, item CN1C(=O)OC(C)(C)C1=O
Ans: 33.5

Q: Give the measured MCHC of Oc1ncnc2[nH]ncc12 .
Ans: 33.7

Q: Quick check: MCHC of Nc1nc(N)c2nc(-c3ccccc3)c(N)nc2n1 ?
Ans: 33

Q: Need MCHC of CCSCC[C@H](N)C(=O)O , thanks.
Ans: 33.5

Q: Can you share its MCHC? I mean this molecule: C[C@](N)(Cc1ccc(O)c(O)c1)C(=O)O
Ans: 33.4

Q: Would you kindly share the measured MCHC for CC(=O)Oc1cc(C(C)C)c(OCCN(C)C)cc1C ?
Ans: 34.4

Q: Endpoint output: MCHC of CC(=N)S [THIOACETAMIDE] . Value?
Ans: 33.1

Q: Consider the molecule shown here: CC(C)(S)[C@@H](N)C(=O)O What is its recorded MCHC?
Ans: 32.5

Q: Given the entry CC(C)C(=O)Nc1ccc([N+](=O)[O-])c(C(F)(F)F)c1 [FLUTAMIDE] , report its measured MCHC.
Ans: 34.4

----------
species: Rattus norvegicus; experiment: Open TG-GATES - Regimen: Daily Repeat; format: toxicity, organism-based, Sprague-Dawley; parameters: regimen Daily Repeat, gender Male, age 6 weeks; settings: in vivo, po, 0 mg/kg, […], tissue Blood, route gavage, dose level Control, time 28 day
readoutType: Hb (g/dL)
Unit g/dL implied. Number only.

Q: I would be grateful if you could share the reported Hb for C[C@]12CCC(=O)C=C1CC[C@@H]1[C@@H]2CC[C@@]2(C)[C@H]1CC[C@]2(C)O .
Ans: 15.7

Q: I'd like to know its Hb. The compound in question is C#C[C@]1(O)CC[C@H]2[C@@H]3CCc4cc(O)ccc4[C@H]3CC[C@@]21C
Ans: 15

Q: GET /values?readout=Hb&item= CCC(C)(C)C(=O)O[C@H]1C[C@@H](C)C=C2C=C[C@H](C)[C@H](CC[C@@H]3C[C@@H](O)CC(=O)O3)[C@H]21
Ans: 14.5

Q: // Hb lookup, key: CN1C(=O)OC(C)(C)C1=O
Ans: 15.4

Q: Form field: reported Hb of Oc1ncnc2[nH]ncc12
Ans: 14.8

Q: So what's the measured Hb for this one? Nc1nc(N)c2nc(-c3ccccc3)c(N)nc2n1
Ans: 15.4

Q: Please report the recorded Hb for CC(C)(S)[C@@H](N)C(=O)O .
Ans: 15.6

Q: So what's the measured Hb for this one? CCc1oc2ccccc2c1C(=O)c1cc(I)c(O)c(I)c1
Ans: 15.8

Q: Any idea what its Hb is? The compound is CCN1CCCC1CNC(=O)c1cc(S(N)(=O)=O)ccc1OC (stereo unspecified) [SULPIRIDE]
Ans: 15.8

Q: Query: Hb; subject: O=C(O)c1cccnc1
Ans: 15

Q: Which Hb reading was recorded for the compound O=C(N[C@H](CO)[C@H](O)c1ccc([N+](=O)[O-])cc1)C(Cl)Cl ?
Ans: 15.5

Q: Looking for the measured Hb of CCSCC[C@H](N)C(=O)O , can you help?
Ans: 15.3

Q: Suppose we examine the compound C[C@](N)(Cc1ccc(O)c(O)c1)C(=O)O ; what Hb value has been reported?
Ans: 15

Q: Form field: reported Hb of CC(=N)S [THIOACETAMIDE]
Ans: 15.9

Q: Can you share its Hb? I mean this compound: CC(=O)Oc1cc(C(C)C)c(OCCN(C)C)cc1C
Ans: 14.4

Q: Requested field: Hb. Item: CC(C)C(=O)Nc1ccc([N+](=O)[O-])c(C(F)(F)F)c1 [FLUTAMIDE]
Ans: 15.2
